All values here come from ChEMBL document CHEMBL1201862.

Test system: RXF 393
experiment-notes: NCI tumour cell line growth inhibition, 48 h
Activity calls are given as the source filed them. Rule as the data show it: active = GI50 up to about 1.1 µM and inactive = higher.
metric: GI50

The examples below pair each entry with its known result.
> print(dat)
                                   molecule  reported.measurement
1  COC(=O)c1nc2n(n1)-c1ccccc1C(=O)N(Cc1ccccc1)C2   > 100 µM (inactive)
2  C=C(C)C1Cc2c(cc(O)c3c(=O)c4c(oc23)C(O)Oc2cc(OC)c(OC)cc2-4)O1 (stereo unspecified)    > 10 µM (inactive)
3  Cc1ccnc(NS(=O)(=O)c2ccc(NC(=O)c3ccc4nc5ccccc5c(Nc5ccc(S(=O)(=O)Nc6nccc(C)n6)cc5)c4c3)cc2)n1    13.6 µM (inactive)
4  CCC(CCCN)Nc1cc(OC)cc2cccnc12 (stereo unspecified)    41.3 µM (inactive)
5  O=c1/c(=C/c2cccc([N+](=O)[O-])c2)sc2nc3ccccc3n12   > 100 µM (inactive)

Requested field: GI50. Item: COC1=C(C)C(=O)C2C(C1=O)C(c1ccc(OC)c(OC)c1)[C@H]2C (stereo partly specified) > 100 µM (inactive)

Entry "O=C(CCCN1CCC2(CC1)CC(=O)N(N1CCOCC1)C2=O)c1ccc(F)cc1" : reported GI50 = ? > 100 µM (inactive)

Could you tell me which GI50 is on file for "COc1cc(C(=O)Oc2ccc3c(c2)OCO3)cc(OC)c1OC" ? > 100 µM (inactive)

* * *

Test system: HCT-15
metric: GI50

molecule	reported-measurement
S=P1(Sc2ccccc2)Oc2ccc3ccccc3c2-c2c(ccc3ccccc23)O1	> 80.4 µM
N#CCCC1(CCC#N)S(=O)(=O)OCCOS1(=O)=O	36.8 µM
O=[N+]([O-])c1cc2ccc1OCc1cccc(n1)COc1ccc(cc1[N+](=O)[O-])/C=N\CCCCCCCC/N=C\2	> 100 µM
CCOP(=O)(OCC)C(F)(F)Cc1cnc(C)c2c1COC(C)(C)O2	> 10 µM
C[N+](C)(C)CC(CC(=O)[O-])C1CC1 (stereo not given)	> 100 µM

Query the reported GI50 for HCT-15; item: "COC(=O)c1cc2c3c(c1)Oc1cc(C(=O)OC)cc4c1C3c1c(cc(C(=O)OC)cc1O4)O2" > 32 µM

Form entry - test system: HCT-15; read-out: GI50; molecule: CC1(O)C2(c3ccccc3)CCC[N+]1(C)CC2 (stereo not given) > 100 µM

Item: "O=C(C=P(c1ccccc1)(c1ccccc1)c1ccccc1)c1ccc(-c2cccc([N+](=O)[O-])c2)s1" Test system: HCT-15 Read-out: GI50 Value: ? 41.1 µM

State its GI50 on HCT-15: COc1ccc(P2(=S)Oc3ccc(C(c4ccccc4)(c4ccccc4)c4ccccc4)cc3O2)cc1 (stereo not given) 19.3 µM

* * *

Test system: EKVX
experiment-notes: NCI tumour cell line growth inhibition, 48 h
The source made the active and inactive calls. No stated cut-off is given here; in the data, active = GI50 up to about 1.1 µM and inactive = higher.
// one of active, inactive, no free text

compound	assigned-label
O=S(=O)(O)c1cc(S(=O)(=O)O)c2cc(/N=N/c3ccc(/N=N/c4ccc(/C=C/c5ccc(/N=[N+](/[O-])c6ccc(/C=C/c7ccc(/N=N/c8ccc(/N=N/c9ccc%10cc(S(=O)(=O)O)cc(S(=O)(=O)O)c%10c9)cc8)cc7S(=O)(=O)O)c(S(=O)(=O)O)c6)cc5S(=O)(=O)O)c(S(=O)(=O)O)c4)cc3)ccc2c1	inactive
C/C(=N/N)c1ccc2[nH]c3c(C)cc([N+](=O)[O-])c(C)c3c2c1	inactive
O=C1Nc2cc(F)ccc2C1=O	inactive

Entry "O=c1c(-c2cccc3ccccc23)c(-c2cccc3ccccc23)c1=O" : call = ? inactive

Write down the call the test reported for this compound. Item: "CC1=C(C)C(=O)C(C2=CC(=O)C=CC2=O)=C(C2=CC(=O)C=CC2=O)C1=O" inactive

Called result for CC1=C(C#N)C(C#N)(C#N)C(NN(C)C)C1 (stereo not drawn) inactive

Record lookup: outcome of this test for "C[C@H]1CC(=O)[C@@]2(O)C#C/C=C\C#C[C@@H]3Nc4c(cc(O)c5c4C(=O)c4ccccc4C5=O)[C@]24O[C@]314" ? active

GET /call?item= "CCOC(=O)/C(=C\NC(C)(C)CO)c1nc2ccccc2[nH]1" returns the recorded outcome of this test. inactive

* * *

GI50 by entry:
Tested on: OVCAR-5
experiment-notes: NCI tumour cell line growth inhibition, 48 h
Activity calls are given as the source filed them. Cut-off read from the data, not from the text of the source: active = GI50 up to about 1.1 µM and inactive = higher.

Would you please look over these solved cases?
compound	test-system	GI50
O=C(c1ccccc1)c1ccc(N2C(=O)/C(=C/c3cccc([N+](=O)[O-])c3)N=C2c2ccccc2)c(N2C(=O)/C(=C/c3cccc([N+](=O)[O-])c3)N=C2c2ccccc2)c1	OVCAR-5	> 100 µM (inactive)
O=S(=O)(c1cc(Cl)ccc1Cl)n1ccnc1	OVCAR-5	35.5 µM (inactive)
CN(/N=C/c1ccccn1)C1=NCCCCN1	OVCAR-5	> 100 µM (inactive)
COc1ccc(Nc2n[nH]c(NS(=O)(=O)c3cc(C)c(Cl)cc3S)n2)cc1	OVCAR-5	> 100 µM (inactive)
COc1ccc(C2=C(N)c3ccccc3C2=O)cc1	OVCAR-5	> 100 µM (inactive)
Cc1nc(-n2nc(-c3ccccc3)cc2-c2ccccc2)sc1C(=O)/C=C/c1ccc([N+](=O)[O-])cc1	OVCAR-5	> 59.4 µM (inactive)
CC(Nc1ccc(S(=O)(=O)NC(=N)N)cc1)c1c2ccccc2nc2ccccc12 (centres undefined)	OVCAR-5	20.2 µM (inactive)
COCC12CCC(OC)C34C5CC6(O)C(OC)C=C(C5C6OC(=O)c5ccccc5)C(C(OC)C13)C4N(C)C2 (centres undefined)	OVCAR-5	> 100 µM (inactive)

Field: next compound
API: value(readout=GI50, system=OVCAR-5) for record NNC(=O)C(=O)N/N=C1\CCC(=O)CC1C(=O)CCC(=O)Nc1ccc(Cl)cc1 (centres undefined) > 100 µM (inactive)

* * *

Test system: SW-620
experiment-notes: NCI tumour cell line growth inhibition, 48 h
Activity calls are given as the source filed them. Cut-off read from the data, not from the text of the source: active = GI50 up to about 1.1 µM and inactive = higher.
The reply should name one outcome from True (active), False (inactive)

Consider the following illustrative entries.
compound	assigned-label
O=C(c1ccc(Cl)c(Cl)c1)N(C(=S)OC12CC3CC(CC(C3)C1)C2)c1ccccc1	False
Cc1cc(O)c2c3c1C(=O)Oc1c(CO)c(O)c(C(=O)O)c(c1O3)C=NN=Cc1c3c(c(CO)c(O)c1C(=O)O)OC(=O)c1c(C)cc(O)c(c1O3)C=NN=C2	False
CCOP(=O)(OCC)C(C#N)Cc1ccco1 (stereo unspecified)	False

Called result for "C/C(=N/N)c1ccc2[nH]c3c(C)cc([N+](=O)[O-])c(C)c3c2c1" False

// return assay outcome for "COc1ccc([N+]2=NC(c3ccc([N+](=O)[O-])cc3)=NN(c3ccccc3)C2)cc1.[O-][Cl+3]([O-])([O-])[O-]" False

Recorded call for c1ccc(CNC2CC(NCc3ccccn3)CC(NCc3ccccn3)C2)nc1 (stereo unspecified) ? False

Would you mind telling me which call this test gave CSc1ncnc2c1ncn2C1CC(Oc2ccc(C)cc2)C(COc2ccc(C)cc2)O1 (stereo unspecified) ? False

Tell me the recorded outcome of this test for "CN(C)Cc1cc(C(=O)/C=C/c2ccc(Br)cc2)cc(CN(C)C)c1O" . False

Entry CC1=C(C#N)C(C#N)(C#N)C(NN(C)C)C1 (stereo unspecified) : call = ? False

Call for entry CC(C)CCCC(C)[C@H]1CC[C@H]2[C@@H]3CC[C@H]4C[C@@H](CCC=C(c5cc(Cl)c(O)c(C(=O)OC(C)C)c5)c5cc(Cl)c(O)c(C(=O)OC(C)C)c5)CC[C@]4(C)[C@H]3CC[C@]12C (stereo partly specified) : False

Just curious, what result did Nc1nc(N)c2cc(CNc3ccc(C(=O)NC(CC(=O)O)C(=O)O)c(Cl)c3)ccc2n1 (stereo unspecified) get here? True

Please let me know the test result on file for "O=C1Nc2ccccc2/C1=N/N=C1NCCCCN1" . False

Tell me the recorded outcome of this test for "COc1cc(C(=O)Oc2ccc3c(c2)OCO3)cc(OC)c1OC" . False

Could you check what this test reported for "CCC(C)(C)c1ccc(Oc2cccc(C(=O)O)c2)cc1" ? False

In this assay, the call recorded for "CC(C)(C)[C@H]1CC[C@@](O)(c2ccccc2)CC1.CC(C)(C)[C@H]1CC[C@](O)(c2ccccc2)CC1" was what? False

Could you check what this test reported for O=C(NC(Cc1ccc(Br)cc1)C(=O)O)c1ccc(I)cc1 (stereo unspecified) ? False

Please let me know the test result on file for "CCN(CC)C(=S)SS(=O)(=O)c1ccccc1[N+](=O)[O-]" . False

* * *

System: UO-31
experiment-notes: NCI tumour cell line growth inhibition, 48 h
Active and inactive are the calls of the source. Rule as the data show it: active = GI50 up to about 1.1 µM and inactive = higher.
Parameter call: string, one of true (1) for active, false (0) for inactive

Record excerpt, results attached:
molecule	assigned-label
O=C(CSCC(=O)N/N=C/c1cccc(C(F)(F)F)c1)N/N=C/c1cccc(C(F)(F)F)c1	false (0)
COc1ccc(C(CC2(c3ccc(OC)cc3)SCCCS2)NC(C)=O)cc1 (stereo not given)	false (0)
CCN(CC)CCNC(=O)c1ccc(I)cc1	false (0)
CC1(O)C2(c3ccccc3)CCC[N+]1(C)CC2 (stereo not given)	false (0)
O=C1Nc2ccccc2/C1=N/N=C1NCCCCN1	false (0)

Assay outcome for "NS(=O)(=O)c1nnc(NC(=O)Nc2ccc(Cl)c(Cl)c2)s1" : what was it? false (0)

Answer briefly: the call reported for "O=C(CCCN1CCC2(CC1)CC(=O)N(N1CCOCC1)C2=O)c1ccc(F)cc1" in this assay. false (0)

Recorded test call requested for "O=C1/C(=C\c2c(-c3ccccc3)[nH]n(-c3ccccc3)c2=O)C(c2ccccc2)=NN1c1ccccc1" false (0)
